The origin of these recorded values is patent US7205305B2.

System: IL-1 production in LPS-stimulated PBMCs
Assay: Inhibition of IL-1 production in LPS-stimulated PBMCs ("cell")
Type: cell-based, human
Conditions: Homo sapiens, PBMC
pIC50: −log10 of the molar value.
measured.metric: pIC50

Consider the reported pIC50 for these molecules:
{"molecule": "O=C1NCN2N=C(Sc3ccc(F)cc3)C=CC2=C1c1c(Cl)cccc1Cl", "pIC50": "≥ 7.00"}
{"molecule": "Nc1cc(F)ccc1Sc1ccc2c(-c3c(Cl)cccc3Cl)c(=O)ncn2n1", "pIC50": "6.30 to 7.00"}
{"molecule": "NC(=O)C(c1cccc(-c2ccc(Cl)cc2Cl)n1)c1c(Cl)cccc1Cl (stereo not drawn)", "pIC50": "≥ 7.00"}

# per-item lookup of pIC50; items listed below
1. COC(=O)CCc1ccc(SC2=NN3CNC(=O)C(c4c(Cl)cccc4Cl)=C3C=C2)cc1
2. Cc1ccccc1-c1cccc(C(C(N)=O)c2c(Cl)cccc2Cl)n1 (stereo not drawn)

Result string:
6.30 to 7.00
≥ 7.00

Below are 6 molecules. Give each one its pIC50.
1. NC(=O)C(c1cccc(-c2cccs2)n1)c1c(Cl)cccc1Cl (stereo not drawn)
2. O=C1C(c2c(Cl)cccc2Cl)=C2C=CC(Sc3ccc(F)cc3)=NN2CN1CO
3. O=c1ncn2nc(Sc3ccc(F)c(Cl)c3)ccc2c1-c1c(Cl)cccc1Cl
4. NC(=O)N(c1cccc(-c2ccc(F)cc2)n1)c1c(F)cccc1F
5. Cc1cccc(-c2cccc(C(C(N)=O)c3c(F)cccc3Cl)n2)c1 (stereo not drawn)
6. CC(C)(C)OC(=O)Nc1ccccc1SC1=NN2CNC(=O)C(c3c(Cl)cccc3Cl)=C2C=C1

Result string:
≤ 6.30
≥ 7.00
6.30 to 7.00
≥ 7.00
6.30 to 7.00
6.30 to 7.00

For each listed entry, give its pIC50.
1. Cc1cc(F)ccc1-c1cccc(C(C(N)=O)c2c(Cl)cc(N)cc2Cl)n1 (stereo not drawn)
2. O=c1ncn2nc(Sc3ccccc3)ccc2c1-c1c(F)cccc1C(F)(F)F

Result string:
1. ≥ 7.00
2. ≤ 6.30
